Data provenance: PubChem BioAssay (NCI)

assay: NCI Yeast Anticancer Drug Screen. Data for the rad18 strain (AID 177); conditions: S. cerevisiae rad18 mutant growth inhibition; at 100.0 µM
The panel holds about 79,000 compounds, 15% with a hit somewhere; the sample as a whole holds those more often. Activity calls are given as the source filed them. Cut-off read from the data, not from the text of the source: active = growth inhibition above about 70%; inactive = the rest.
Use one of these outcomes when replying: True for active, False for inactive

Which outcome was assigned to S=C(NCc1ccccn1)N/N=C/c1ccccn1 in this test?
True

For O=CC1(F)CC1(c1ccccc1)c1ccccc1 (stereo unspecified) , which call appears in the assay record?
True

More entries:
So what was the verdict on CC1=C(C)C(=O)C2=C(OCCO2)C1=O in this test?
False

Just curious, what result did CCC1(O)C(=O)OCc2c1cc1n(c2=O)Cc2cc3c(N)cccc3nc2-1 (stereo unspecified) get here?
False

How did this test come out for COc1ccc2cc(C(C)C(=O)N3CCOC3=O)ccc2c1 (stereo unspecified) ?
False

What did the test return for Cc1ccc(S(=O)(=O)N/N=C/C(Br)=C(/Br)C(=O)O)cc1 ?
True

Record request — test call for CN1CCN(C(=O)c2cccc3cccc(C(=O)O)c23)CC1
True

I'd appreciate the recorded outcome for Nc1ccc2cc(Br)ccc2c1Br from this test.
False

Recorded test call requested for N#Cc1nc(Nc2ccc(Cl)cc2)sc1N
True

# fetch the recorded call for CO[C@@]1([C@@H](Cl)c2ccccc2)C(=O)N(C)/C(=C\c2ccccc2)C(=O)N1C here
False

Recorded test call requested for O=C(O)C(=Cc1ccc(-c2ccccc2)cc1)C(=O)O
True

Lab log entry: CCOC(=O)C(Cc1c2ccccc2cc2ccccc12)(NC(C)=O)C(=O)OCC — outcome as called in the assay?
False

Per the assay record, what outcome was assigned to CC(C)CCC[C@@H](C)[C@H]1CC[C@H]2[C@@H]3CC[C@H]4C[C@H](N)CC[C@]4(C)[C@H]3CC[C@]12C ?
False

I would be grateful if you could indicate the recorded call for COc1c2c(c3c(c1CCC(=O)O)OC(C)(C)C=C3)OC(C)(C)C=C2 .
True

Please share the test call associated with C1=CCN([B-](c2ccccc2)[C+]2CCCCC2)C=C1 .
True

Write down the call the test reported for this compound. Item: CCCCCCCCCC(=O)N(CCC)CCC
True

Lab log entry: CCCCCCCCNCCCCCCCC — outcome as called in the assay?
True

Please let me know the test result on file for Cc1cccc(C)c1NC(=O)CCC(=O)C(C)C(=O)c1ccc(O)cc1 (stereo unspecified) .
False

How was CSc1nc(-c2ccccc2)nc(=[N+]2CCOCC2)s1 classified in this test?
True

GET /call?item= CC1=COC2=C(C)C(=O)C(=O)c3c(C)ccc1c32 returns the recorded outcome of this test.
True

In this assay, the call recorded for CCOc1ccc2nc3ccccc3c(N)c2c1 was what?
True

====

assay: NCI Yeast Anticancer Drug Screen. Data for the wt1 strain (AID 149);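 note: 0% = growth of vehicle-treated wt1 cultures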; conditions: S. cerevisiae wt1 strain (SPY 50644) growth inhibition; at 11.0 µM; stronger effect = higher value
About 79,000 compounds went through this panel and 15% of them were active in at least one assay; those are over-represented in the sample as a whole.
READOUT LABEL: growth inhibition (%)
One number for each entry, in %.

Consider the reported growth inhibition for these compounds:
growth inhibition reported for this compound Clc1nc(Cl)nc(Nc2cccc3ccccc23)n1 : 36

# compound O=C1C(=C2CCCC2)CCC1CN1CCCCC1 (centres undefined) ; its growth inhibition = 27

Data point: Oc1ccc(C2(c3ccc(O)cc3)CCCC2)cc1 ; growth inhibition = 10

For every item below, please supply its growth inhibition.
1. O=S1(=O)CCC2=CC(C(F)(F)F)=CC(C(F)(F)F)=CN21
2. NCCOc1ccc(/C(=C(/Cl)c2ccccc2)c2ccccc2)cc1
3. COc1ccc(C(C)c2cc3c(cc2OCC(C)=O)OCO3)cc1 (centres undefined)

53
5
-5

I have 3 compounds here; please give me growth inhibition for each one.
1. CCC(C)COC(=O)Nc1cccc(Cl)c1 (centres undefined)
2. S=C1C(=Nc2ccccc2)N(c2ccccc2)/C(=N\c2ccccn2)N1c1ccccc1
3. CC1(c2ccccc2)O[C@@H]2C[C@H]3[C@@H]4CCC5=CC(=O)C=C[C@]5(C)[C@@]4(F)[C@@H](O)C[C@]3(C)[C@]2(C(=O)CO)O1 (some centres undefined)

1. 0
2. 21
3. 3

====

assay: NCI Yeast Anticancer Drug Screen. Data for the rad18 strain (AID 177); conditions: S. cerevisiae rad18 mutant growth inhibition; at 3.7 µM
Compounds without any hit were thinned out: in the full panel of roughly 79,000, 15% have a hit. Activity calls are given as the source filed them. Cut-off read from the data, not from the text of the source: active = growth inhibition above about 70%; inactive = the rest.
Outcome (select one): active, inactive

Reference set, count: 5
Could you please tell me the result logged for O=C(NOC(=O)c1ccc([N+](=O)[O-])cc1)c1ccc(Cl)cc1 in this assay?
inactive

For this compound, state the assay outcome: [N-]=[N+]=NC1(c2ccccc2)C(=O)Nc2ccccc2C1=O (stereo unspecified)
inactive

GET /call?item= CCOC(=O)/C(=C/c1cccc(Cl)c1)N(CC)CC returns the recorded outcome of this test.
inactive

Any idea what this test logged for Cc1ccc([N+](=O)[O-])c2c(NCCC[N+](C)(C)[O-])c3ccccc3nc12 ?
active

Tell me the recorded outcome of this test for COc1ccc2nc3cccc([N+](=O)[O-])c3c(NCCCCCC(=O)O)c2c1 .
active

Now look at this one.
Assay result, entry CO[C@@]1([C@@H](Cl)c2ccccc2)C(=O)N(C)/C(=C\c2ccccc2)C(=O)N1C — outcome?
inactive

====

assay: NCI Yeast Anticancer Drug Screen. Data for the rad50 strain (AID 155);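 note: 0% = growth of vehicle-only cultures of the same strain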; details: S. cerevisiae rad50 strain growth inhibition; at 3.7 µM
This is part of a sample that, as a whole, favours compounds with a hit. Of some 79,000 tested, about 15% had one in any assay. Calls of active or inactive are those of the source. Cut-off read from the data, not from the text of the source: active = growth inhibition above about 70%; inactive = the rest.
Give your call using only these classes: active, inactive

What was the test verdict on COC(=N)c1ccc(O)c(C)c1 ?
inactive

So what was the verdict on CCc1c(Cl)c(C)c(Cl)c(O)c1Cl in this test?
inactive

Tell me the assay call for Clc1nc(Cl)nc(Nc2cccc3ccccc23)n1 please.
inactive

Given OC1(c2ccccc2)C2CC=CC2C1(c1ccccc1)c1ccccc1 (stereo not given) , state the outcome it received in this test.
inactive

***
Can you look up the reported call for CC(C)(Br)C(=O)/C=C/c1ccccc1 for me?
inactive

Please state the recorded outcome for this molecule: CC(=O)CCC1=C(C)C(=O)C(=O)C(C)=C1O
inactive

// param item: CC(=O)/C=C/c1cccc([N+](=O)[O-])c1 ; yields the recorded call
inactive

Please let me know the test result on file for N#[N+]c1c([O-])c2ccccc2c2ccccc12 .
inactive

// return assay outcome for CCC(=O)Nc1ccc(N=NN(C)C)cc1
inactive

Fill in: this test's call for O=C1C(/C=C/c2ccc(Cl)cc2)=NNC2N1N=C1NC(=O)C3(NN12)c1ccccc1-c1ccccc13 (stereo not given) is ___
inactive

Hey, what did the test say about COC(=O)c1ccccc1N=NNc1cccc(SC)c1 ?
inactive

I'd appreciate the recorded outcome for O=C(NC(N1CCN(c2cc3c(cc2F)c(=O)c(C(=O)O)cn3C2CC2)CC1)(C(F)(F)F)C(F)(F)F)c1ccccc1 from this test.
inactive

Just curious, what result did O=C(CCCN1CCC(Nc2ccc(F)cc2)(c2nnnn2C2CCCCC2)CC1)c1ccc(F)cc1 get here?
inactive

How was CNC(=O)OCc1c(COC(=O)NC)c(C)n(-c2ccc(Br)cc2)c1C classified in this test?
inactive

What classification did Cc1c2c(nc3ccccc13)C(=O)c1cccnc1C2=O end up with in this test?
inactive

Look up the recorded call for O=S(=O)(NNc1ccccc1)c1ccccc1 in this test.
inactive

Tell me the assay call for CN(C)CCCn1c2c3ccccc3ccc2c2oc(=O)c3ccccc3c21 please.
inactive

====

assay: NCI Yeast Anticancer Drug Screen. Data for the bub3 strain (AID 167); settings: S. cerevisiae bub3 mutant strain, at 33.0 µM
Compounds without any hit were thinned out: in the full panel of roughly 79,000, 15% have a hit. The source made the active and inactive calls. Rule as the data show it: active = growth inhibition above about 70%; inactive = the rest.
Allowed answers: 1 (active), -1 (inactive)

What did the test return for COc1ccc2nc3cccc([N+](=O)[O-])c3c(NCCCCCC(=O)O)c2c1 ?
1

Kindly provide the recorded test outcome for the following compound: O=C(Cc1ccccc1)NNc1nc(NNC(=O)c2ccncc2)nc(Nc2ccc([N+](=O)[O-])cc2)n1
-1

What did this assay record as the result for COC(=O)C1CCCCC1C(=O)Nc1ccccc1 (configuration not stated) ?
-1

Test call, this compound: C[C@H](CCC1=NC(C)(C)CO1)C1CCC2[C@@H]3C(O)C[C@@H]4CC(O)CC[C@]4(C)C3CC[C@@]21C (some centres not stated)
1

Assay outcome for O=C(O)C(=Cc1ccc(-c2ccccc2)cc1)C(=O)O : what was it?
1

Field: outcome | Entry: COc1ccc2cc(C(C)C(=O)N3CCOC3=O)ccc2c1 (configuration not stated)
-1

API: the following record is the query input.
Would you mind telling me which call this test gave CN1CCN(C(=O)c2cccc3cccc(C(=O)O)c23)CC1 ?
-1
